// provenance: the supplement of paper PMC7125110

The entries below are paired with their reported self-cleavage kobs at 2500 uM GlcN6P.
B1: glmS ribozyme (parent)
chain: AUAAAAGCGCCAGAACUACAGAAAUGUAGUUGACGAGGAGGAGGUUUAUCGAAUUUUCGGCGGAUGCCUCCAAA

Variants of: B1
Assay: self-cleavage kobs at 2500 uM GlcN6P; higher = faster cleavage; RNA array
Conditions: with glucosamine-6-phosphate
Fewer inactive variants are shown than the library holds.
assayReadout: self-cleavage kobs at 2500 uM GlcN6P (s⁻¹)

A14U U47C C58G C68G: 0.000171
G29U G66U: 0.000151
U65G C67A: 0.00133
A53C U57G: 0.000143
U54C A64G: 0.0287
U31G U55G: 0.0116
G32A U56A: 0.000295
U46G G66A C70A: 0.00045
